System: CCRF-CEM leukemia
Assay: NCI-60 one-dose screen, 48 h (100 = growth as untreated, 0 = no growth, -100 = all killed)
Details: 10 µM unless noted
The panel holds about 83,000 compounds, 20% with a hit somewhere; the sample as a whole holds those more often.

# compound, measure unit, growth
records = [
    ("COc1cc(-c2nn(-c3ccc(Br)cc3)cc2C(=O)O)ccc1O", "%", 90.1),
    ("CC(=O)Nc1ccc(-n2c(O)c(/C=N/NC(=O)Cc3ccccc3Nc3c(Cl)cccc3Cl)sc2=S)cc1", "%", 96.7),
    ("COc1ccc(C(=O)COc2cccc(/C=C3\\CSc4ccccc4C3=O)c2)cc1", "%", -62.2),
    ("Nc1n[nH]c2ccc([C@@H]3Nc4ccc5cn[nH]c5c4[C@H]4C5CCC(C5)[C@@H]34)cc12 (stereo partly specified)", "%", 15.6),
    ("NC(N)=N/N=C(/c1ccccc1)c1ccc(F)cc1", "%", -14.3),
    ("Cc1ccccc1COc1ccc(-c2onc(C)c2-c2ccc(Cl)cc2)cc1", "%", 38.2),
    ("CCN(CC)c1ccc(/C=N\\NC(=O)/C=C/C=C/c2ccc3c(c2)OCO3)c(O)c1", "%", 21.7),
    ("O=c1c2c3c(sc2nc(N/N=C/c2cn(-c4ccccc4)nc2-c2ccc(Cl)cc2)n1Cc1ccccc1)CCCC3", "%", 109),
    ("O=C1c2cc3c(cc2-c2c1c1ccc(F)cc1c(=O)n2C[C@H](O)[C@@H](O)[C@H](O)CO)OCO3", "%", 5.88),
    ("Cc1ccccc1COc1ccc(-c2ccnn2-c2ccc(Cl)cc2)cc1", "%", 42.4),
    ("CC1=C[C@H]2c3c(c(O)c(O)c4oc5cc(O)ccc5c(=O)c34)[C@H](c3cc(O)c(O)c4oc5cc(O)ccc5c(=O)c34)[C@H]2C(C)(C)C1", "%", 27.1),
    ("COc1ccc(/C=N/C2=C(C#N)C(c3ccc(N(C)C)cc3)c3ccc4ccccc4c3O2)cc1 (stereo unspecified)", "%", 63.1),
    ("CC(=O)c1cc2c(N)c(C(=O)Nc3cccc4ccccc34)sc2nc1C", "%", 6.95),
    ("N#Cc1c(N)n(CCNC(=O)c2ccccc2)c2nc3ccccc3nc12", "%", 133),
    ("O=C(COc1cccc(/C=C2\\CSc3ccccc3C2=O)c1)Nc1nccs1", "%", 4.26),
    ("CNC(=O)c1cc(Oc2ccc(NC(=O)Nc3ccc(Cl)c(SC)c3)c(F)c2)ccn1", "%", 40.7),
    ("CCOc1nc(-c2ccccc2)cc2c(O)c(C(=O)N/N=C/c3ccc(O)cc3O)[nH]c(=O)c12", "%", -33.9),
    ("CCOC(=O)c1c(C)oc2ncnc(N3CCN(C(=S)Nc4ccccc4)CC3)c12", "%", 92.3),
    ("COc1ccc(CN2c3ccccc3Oc3ccccc32)cc1O", "%", 12.5),
    ("O=C(COc1ccc(/C=C2\\CSc3ccccc3C2=O)cc1)Nc1nccs1", "%", -66.1),
    ("Clc1ccc2c(NCCCNc3nc(-n4ccnc4)nc4ccccc34)ccnc2c1", "%", 75.2),
    ("CC(=O)O[C@H]1[C@@H]2OC(=O)C(CSc3ccccc3)[C@@H]2C[C@H]2O[C@]2(C)CC/C=C(\\C)CCC[C@@H]1C (stereo partly specified)", "%", 52.4),
    ("O=C(N=Nc1c(O)[nH]c2ccc(Br)cc12)c1cc(-c2ccccc2)on1", "%", 102),
    ("COc1cccc(-c2nc3sccn3c2-c2ccnc(NCCCNS(=O)(=O)c3cccc(F)c3)c2)c1", "%", 9.96),
    ("O=C(O)c1c(=O)cccc2ssc12", "%", 4.61),
    ("COc1cccc2c1C(=O)c1c(O)c3c(c(O)c1C2=O)C[C@](O)(C(=O)CO)C[C@H]3O[C@@H]1C[C@@H](NC(=O)CCCCCN(C)C2(c3ccc(F)cc3)CC3CCC2C3)[C@H](O)[C@@H](C)O1 (stereo partly specified)", "%", -22.2),
    ("CC1=C[C@H]2c3c(c(O)c(O)c4oc(-c5ccccc5)cc(=O)c34)[C@H](c3cc(O)c(O)c4oc(-c5ccccc5)cc(=O)c34)[C@H]2C(C)(C)C1", "%", 4.65),
    ("CCN1CCN(c2nc(NCCCNc3ccnc4cc(Cl)ccc34)c3ccccc3n2)CC1", "%", 12.2),
    ("Cc1cc2nc3[nH]c4ccccc4c3nc2cc1C", "%", 76.2),
    ("O=C(/C=C/c1cccc([N+](=O)[O-])c1)c1ccc(O)c(CN2CCN(c3cc4c(cc3F)c(=O)c(C(=O)O)cn4C3CC3)CC2)c1", "%", 0.194),
    ("O=C(/C=C/c1cc(CN2CCOCC2)c(O)c2ncccc12)c1cc(CN2CCOCC2)c(O)c2ncccc12", "%", 26.9),
    ("Cc1ccc2c(C(C[N+](=O)[O-])c3ccccc3F)c(-c3ccccc3)[nH]c2c1 (stereo unspecified)", "%", 28.6),
    ("O=C(/C=C/c1cccc(Cl)c1)c1ccc(O)c(CN2CCN(c3cc4c(cc3F)c(=O)c(C(=O)O)cn4C3CC3)CC2)c1", "%", 25.1),
    ("CCOc1nc(-c2ccccc2)cc2c(O)c(C(=O)O)[nH]c(=O)c12", "%", 83),
    ("CNC(=O)c1cc(Oc2ccc(NC(=O)Nc3ccc(Cl)c(OC(F)(F)F)c3)c(F)c2)ccn1", "%", 30.1),
    ("COc1cc(/C=C/c2cc(O)c3cc(C(C)=O)c(=O)oc3c2)cc2c1O[C@]1(C)CC[C@@H](O)C(C)(C)[C@H]1C2", "%", 22.1),
]
